Cited source: ChEMBL document CHEMBL1201862

This section presents compounds with their documented GI50 values.
Test system: A498
Experiment: NCI tumour cell line growth inhibition, 48 h
Active and inactive are the calls of the source. Rule as the data show it: active = GI50 up to about 1.1 µM and inactive = higher.
assayMetric: GI50

1. Cc1[nH]c(=O)[nH]c(=O)c1C(=O)N(CCO)Cc1ccccc1
> 100 µM (inactive)
2. COc1cccc(NC(=O)C(C)(C)C)c1SSc1c(NC(=O)C(C)(C)C)cccc1OC
> 100 µM (inactive)
3. CC(=O)Nc1ccc2c(c1)nc1c3ccccc3ccn21
> 100 µM (inactive)
4. C=CCN1C(=O)C=C(c2ccccc2)n2ncc3cccc1c32
44.3 µM (inactive)
5. CC12OC3(C(O)C1O)C(C(=O)O[C@H]3CO[Si](C)(C)C(C)(C)C)C2S(=O)(=O)c1ccccc1 (stereo not given in full)
> 100 µM (inactive)
